Tested on: P31/FUJ cell line
Assay: Ex vivo cytotoxicity assay, leukemia cell lines
Assay type: cell-based
Details: Homo sapiens; Table 5: P31/FUJ, AML, 72 h; AKR1C3 expression Low
test-readout: IC50

Query: Quick check: IC50 of C[C@H](OP(=O)(N1CC1)N1CC1)c1ccc([N+](=O)[O-])c(Oc2cccc(C(=O)N(C)C)c2)c1 [OBI-3424] ?
Result: > 1 µM

====

System: P116 cell line
Test: Ex vivo cytotoxicity assay, leukemia cell lines
Assay type: cell-based
Conditions: Homo sapiens; Table 5: P116, Jurkat mutant, 72 h; AKR1C3 expression Low
test-readout: IC50
Include the unit right after the number.

Query: Quick check: IC50 of C[C@H](OP(=O)(N1CC1)N1CC1)c1ccc([N+](=O)[O-])c(Oc2cccc(C(=O)N(C)C)c2)c1 [OBI-3424] ?
Result: 84 nM

====

System: P30/OHK cell line
Assay: Ex vivo cytotoxicity assay, leukemia cell lines
Assay type: cell-based
Settings: Homo sapiens; Table 5: P30/OHK, T-ALL (pediatric), 72 h; AKR1C3 expression Low
test-readout: IC50

Query: Quick check: IC50 of `C[C@H](OP(=O)(N1CC1)N1CC1)c1ccc([N+](=O)[O-])c(Oc2cccc(C(=O)N(C)C)c2)c1` ?
Result: > 1000 nM

====

Test system: NOMO-1 cell line
Assay: Ex vivo cytotoxicity assay, leukemia cell lines
Assay type: cell-based
Settings: Homo sapiens; Table 4: NOMO-1, AML (acute monocytic), AKR1C3 expression Medium; CellTiter-Glo
Experimental: Leukemia cell lines were suspended in RPMI medium supplemented with FBS (Biosera), while ALL PDX cells were cultured in QBSF medium (Quality Biological Inc.,) supplemented with Flt-3 ligand (20 ng/ml, BioNovus Life Sciences) or IL7 (10-20 ng/ml, Jomar Life Research). […] Viability was determined using Alamar Blue reduction assay or Cell Titer-Glo Luminescent Cell Viability Assay (Promega). […] The expression levels of AKR1C3 protein was determined by Western blot analysis. […]
test-readout: pIC50
Give bare numbers, as −log10 of the molar value.

Query: Quick check: pIC50 of `C[C@H](OP(=O)(N1CC1)N1CC1)c1ccc([N+](=O)[O-])c(Oc2cccc(C(=O)N(C)C)c2)c1` ?
Result: 7.96

====

Tested on: C3A hepatocellular carcinoma cell line
Assay: Ex vivo proliferation assay, 96 h exposure
Type: cell-based
Conditions: Homo sapiens, 96 h of exposure, AKR1C3 protein High, read-out: 3424 IC50
test-readout: IC50 (nM)
Numbers only, in nM.

Query: Quick check: IC50 of `C[C@H](OP(=O)(N1CC1)N1CC1)c1ccc([N+](=O)[O-])c(Oc2cccc(C(=O)N(C)C)c2)c1` ?
Result: 5

====

Test system: HEL hematological cancer cell line
Test: Ex vivo proliferation assay, hematological cancer cell lines, 72 h
Assay type: cell-based
Conditions: Homo sapiens; Table 6: HEL, 72 h of exposure
test-readout: pIC50
Answers are plain numbers, as −log10 of the molar value.

Query: Quick check: pIC50 of C[C@H](OP(=O)(N1CC1)N1CC1)c1ccc([N+](=O)[O-])c(Oc2cccc(C(=O)N(C)C)c2)c1 [OBI-3424] ?
Result: 6.65

====

Test system: TF-1 cell line
Assay: Ex vivo cytotoxicity assay, leukemia cell lines
Assay type: cell-based
Details: Homo sapiens; Table 5: TF-1, Erythroleukemia, 72 h; AKR1C3 expression Medium
test-readout: IC50 (nM)
Numbers only, in nM.

Query: Quick check: IC50 of `C[C@H](OP(=O)(N1CC1)N1CC1)c1ccc([N+](=O)[O-])c(Oc2cccc(C(=O)N(C)C)c2)c1` ?
Result: 2.8
